Target of assay: 5-hydroxytryptamine receptor 1A (Homo sapiens, UniProt P08908); further: assay procedure not described here
Sequence (P08908 whole entry): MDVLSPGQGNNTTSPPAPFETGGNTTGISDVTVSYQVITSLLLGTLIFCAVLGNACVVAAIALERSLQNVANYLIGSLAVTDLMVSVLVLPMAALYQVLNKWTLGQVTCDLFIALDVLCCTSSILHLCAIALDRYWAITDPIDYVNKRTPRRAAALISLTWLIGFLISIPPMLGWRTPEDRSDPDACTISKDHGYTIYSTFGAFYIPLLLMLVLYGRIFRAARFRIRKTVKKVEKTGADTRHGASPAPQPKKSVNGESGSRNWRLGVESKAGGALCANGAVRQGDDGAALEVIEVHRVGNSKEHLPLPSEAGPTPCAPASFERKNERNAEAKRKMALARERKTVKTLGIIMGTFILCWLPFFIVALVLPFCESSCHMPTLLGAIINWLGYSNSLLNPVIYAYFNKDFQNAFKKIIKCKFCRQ
Format: functional, cell-based
Metric: AC50

Known results for molecules:
# Molecule, AC50
rows = [
    ("CO[C@@H]1[C@@H](O[C@@H]2O[C@H](C)[C@@H](O[C@H]3C[C@@](C)(O)[C@@H](OC(=O)CC(C)C)[C@H](C)O3)[C@H](N(C)C)[C@H]2O)[C@@H](CC=O)C[C@@H](C)[C@@H](O)/C=C/C=C/C[C@@H](C)OC(=O)C[C@H]1OC(C)=O", "> 10 µM"),
    ("Clc1ccc(C(c2ccccc2Cl)C(Cl)Cl)cc1 (stereo unspecified)", "> 10 µM"),
    ("Cc1cc(C(C)(C)C)c(O)c(C)c1CC1=NCCN1", "0.0094 µM"),
    ("CC/C(=C(\\c1ccccc1)c1ccc(OCCN(C)C)cc1)c1ccccc1", "> 10 µM"),
    ("CC[C@H]1CN2CCc3cc(OC)c(OC)cc3[C@@H]2C[C@@H]1C[C@H]1NCCc2cc(OC)c(OC)cc21", "> 30 µM"),
]

Q: Supply AC50 value. Item: `CCCc1nc(C(C)(C)O)c(C(=O)OCc2oc(=O)oc2C)n1Cc1ccc(-c2ccccc2-c2nnn[nH]2)cc1`
A: > 10 µM

Q: Supply AC50 value. Item: `Nc1nc(NC2CC2)c2ncn([C@H]3C=C[C@@H](CO)C3)c2n1`
A: > 30 µM

Q: Supply AC50 value. Item: `Brc1c(NC2=NCCN2)ccc2nccnc12`
A: 5 µM

Q: Supply AC50 value. Item: `CC[C@@H]1C(=O)OC[C@@H]1Cc1cncn1C`
A: > 30 µM

Q: Supply AC50 value. Item: CC(=O)O[C@H]1CC[C@@]2(C)C(=CC[C@@H]3[C@@H]2CC[C@]2(C)C(c4cccnc4)=CC[C@@H]32)C1 [ABIRATERONE ACETATE]
A: > 30 µM

* * *

Target of assay: Neuronal acetylcholine receptor subunit alpha-4 (Homo sapiens, UniProt P43681); further: assay procedure not described here
Sequence (P43681 whole entry): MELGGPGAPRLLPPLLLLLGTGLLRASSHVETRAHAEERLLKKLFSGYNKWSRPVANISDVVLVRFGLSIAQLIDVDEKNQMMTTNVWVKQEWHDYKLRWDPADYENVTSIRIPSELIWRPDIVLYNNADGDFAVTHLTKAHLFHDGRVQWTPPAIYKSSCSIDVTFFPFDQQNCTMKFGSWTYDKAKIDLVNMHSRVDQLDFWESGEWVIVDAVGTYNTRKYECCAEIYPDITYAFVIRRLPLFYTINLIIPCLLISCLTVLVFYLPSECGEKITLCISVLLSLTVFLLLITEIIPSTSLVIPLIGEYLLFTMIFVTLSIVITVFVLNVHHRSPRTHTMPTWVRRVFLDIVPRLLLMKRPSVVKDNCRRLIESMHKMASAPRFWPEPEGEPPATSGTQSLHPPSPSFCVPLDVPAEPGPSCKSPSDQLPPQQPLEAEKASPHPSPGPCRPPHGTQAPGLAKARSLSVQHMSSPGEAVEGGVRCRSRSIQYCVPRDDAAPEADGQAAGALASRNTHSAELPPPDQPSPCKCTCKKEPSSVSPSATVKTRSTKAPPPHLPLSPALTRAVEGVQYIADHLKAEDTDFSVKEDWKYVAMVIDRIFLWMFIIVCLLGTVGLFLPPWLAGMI
The entries below are paired with their reported AC50.

# Molecule, AC50
records = [
    ("CN(C)CC/C=C1\\c2ccccc2CSc2ccccc21 [DOTHIEPIN]", "> 30 µM"),
    ("C[C@](N)(Cc1ccc(O)c(O)c1)C(=O)O", "> 10 µM"),
    ("COC(=O)C1=C(C)NC(C)=C(C(=O)OC2CCCN(Cc3ccccc3)C2)C1c1cccc([N+](=O)[O-])c1 (configuration not stated)", "> 30 µM"),
    ("NS(=O)(=O)Cc1noc2ccccc12 [ZONISAMIDE]", "> 10 µM"),
    ("O=C(OCC(O)CO)c1ccccc1Nc1ccnc2cc(Cl)ccc12 (configuration not stated)", "> 30 µM"),
]

Q: Give reported AC50 for `Cc1cn([C@H]2C[C@H](N=[N+]=[N-])[C@@H](CO)O2)c(=O)[nH]c1=O` (Neuronal acetylcholine receptor subunit alpha-4 (Homo sapiens, UniProt P43681))
A: > 10 µM

Q: Give reported AC50 for `Cc1cn([C@H]2C=C[C@@H](CO)O2)c(=O)[nH]c1=O` (Neuronal acetylcholine receptor subunit alpha-4 (Homo sapiens, UniProt P43681))
A: > 10 µM

Q: Give reported AC50 for `Nc1ccn([C@H]2CC[C@@H](CO)O2)c(=O)n1` (Neuronal acetylcholine receptor subunit alpha-4 (Homo sapiens, UniProt P43681))
A: > 10 µM

Q: Give reported AC50 for OC(CNCC(O)C1CCc2cc(F)ccc2O1)C1CCc2cc(F)ccc2O1 (configuration not stated) (Neuronal acetylcholine receptor subunit alpha-4 (Homo sapiens, UniProt P43681))
A: > 30 µM

Q: Give reported AC50 for CN1C(=O)C(O)N=C(c2ccccc2)c2cc(Cl)ccc21 (configuration not stated) (Neuronal acetylcholine receptor subunit alpha-4 (Homo sapiens, UniProt P43681))
A: > 10 µM

Q: Give reported AC50 for `CC/C(=C(\c1ccccc1)c1ccc(OCCN(C)C)cc1)c1ccccc1` (Neuronal acetylcholine receptor subunit alpha-4 (Homo sapiens, UniProt P43681))
A: > 30 µM

Q: Give reported AC50 for `CN(C)CCC=C1c2ccccc2C(C)(C)c2ccccc21` (Neuronal acetylcholine receptor subunit alpha-4 (Homo sapiens, UniProt P43681))
A: > 1 µM

Q: Give reported AC50 for CC1(C)O[C@@H]2C[C@H]3[C@@H]4CCC5=CC(=O)C=C[C@]5(C)[C@H]4[C@@H](O)C[C@]3(C)[C@]2(C(=O)CO)O1 [DESONIDE] (Neuronal acetylcholine receptor subunit alpha-4 (Homo sapiens, UniProt P43681))
A: > 10 µM

Q: Give reported AC50 for O=C(NCCNCC(O)COc1ccc(O)cc1)N1CCOCC1 (configuration not stated) (Neuronal acetylcholine receptor subunit alpha-4 (Homo sapiens, UniProt P43681))
A: > 30 µM

Recorded values, source ChEMBL document CHEMBL5291721.
